- Test system: LNCaP
- ASSAY NOTES: Cell growth inhibition assay, prostate cancer cell line LNCaP (medium with 10 ng/mL IL-6)
- Format: cell-based
- ASSAY SETUP: Homo sapiens, medium supplemented with 10 ng/mL of IL-6, 10,000 cells/well
RESULT TYPE: IC50

[[record]]
compound = "CC(C)(C)OC(=O)N1CCC(Oc2cc(OC(F)(F)F)cc(C(C)(C)c3cc(Cl)cc(NC(=O)c4cc5cc(NS(C)(=O)=O)ccc5s4)c3)c2)CC1"
value_observed = "0.015 µM"

[[record]]
compound = "COc1ccc(F)c(-c2ccnc(NC(=O)c3cc4ccc([N+](=O)[O-])cc4[nH]3)c2)c1"
value_observed = "8.6 µM"

[[record]]
compound = "CC(C)(c1cc(Cl)cc(NC(=O)c2cc3cc(NS(C)(=O)=O)ccc3s2)c1)c1cc(OC(F)(F)F)cc(OC(F)(F)C(F)F)c1"
value_observed = "0.068 µM"

[[record]]
compound = "CC(C)(c1cccc(NC(=O)c2cc3cc(NS(C)(=O)=O)ccc3s2)c1)c1cccc(OC(F)(F)F)c1"
value_observed = "0.39 µM"

[[record]]
compound = "COc1cc(NS(C)(=O)=O)cc2cc(C(=O)Nc3cccc(-c4ccc(F)cc4F)c3)oc12"
value_observed = "8.6 µM"

[[record]]
compound = "CS(=O)(=O)Nc1ccc2sc(C(=O)Nc3cc(Cl)cc(Oc4cc(F)cc(F)c4)c3)cc2c1"
value_observed = "0.27 µM"

[[record]]
compound = "Cc1noc(C)c1S(=O)(=O)Nc1ccc2sc(C(=O)Nc3cc(Cl)cc(C(C)(C)c4cc(OC(C)C)cc(OC(F)(F)F)c4)c3)cc2c1"
value_observed = "0.34 µM"

[[record]]
compound = "CS(=O)(=O)Nc1cc2cc(C(=O)Nc3cc(Cl)cc(OC4CCCCC4)c3)sc2cc1Cl"
value_observed = "0.083 µM"

[[record]]
compound = "CS(=O)(=O)Nc1ccc2sc(C(=O)Nc3cc(Cl)cc(C4(c5ccc(Cl)cc5)CC4)c3)cc2c1"
value_observed = "0.073 µM"

[[record]]
compound = "O=C(Nc1cccc(-c2ccccc2C(F)(F)F)c1)C1Cc2ccc([N+](=O)[O-])cc2N1 (stereo not shown)"
value_observed = "2.7 µM"

[[record]]
compound = "CC(C)Oc1cc(OC(F)(F)F)cc(C(C)(C)c2cc(Cl)cc(NC(=O)c3cc4cc(N(CCN(C)C)S(C)(=O)=O)c(F)cc4s3)c2)c1"
value_observed = "0.19 µM"

[[record]]
compound = "CS(=O)(=O)Nc1ccc2cc(C(=O)Nc3cc(-c4ccc[nH]4)cc(-c4ccc(F)cc4F)c3)[nH]c2c1"
value_observed = "7.6 µM"

[[record]]
compound = "Cc1c(C(=O)Nc2cccc(-c3ccc(F)cc3F)c2)sc2cc(NS(C)(=O)=O)ccc12"
value_observed = "5.4 µM"

[[record]]
compound = "COc1ccc(C(C)(C)c2cc(Cl)cc(NC(=O)c3cc4cc(NS(C)(=O)=O)ccc4s3)c2)s1"
value_observed = "0.089 µM"

[[record]]
compound = "CC(C)(c1cc(F)cc(NC(=O)c2cc3cc(NS(C)(=O)=O)ncc3s2)c1)c1cc(OC(F)(F)F)cc(OC(F)(F)C(F)F)c1"
value_observed = "0.075 µM"

[[record]]
compound = "CC(C)(c1cccc(NC(=O)c2cc3ccc(NS(C)(=O)=O)cc3[nH]2)c1)c1ccccc1F"
value_observed = "2.4 µM"

[[record]]
compound = "CS(=O)(=O)Nc1ccc2cc(C(=O)Nc3cc(-c4ccc(F)nc4)cc(-c4ccc(F)cc4F)c3)[nH]c2c1"
value_observed = "2.3 µM"

[[record]]
compound = "CCOc1cc(OC(F)(F)F)cc(C(C)(C)c2cc(Br)cc(NC(=O)c3cc4ccc(NS(C)(=O)=O)cc4[nH]3)c2)c1"
value_observed = "0.29 µM"

[[record]]
compound = "CC(C)(c1ccc(F)cc1)c1cccc(NC(=O)c2cc3ccc(NS(C)(=O)=O)cc3s2)c1"
value_observed = "2.9 µM"

[[record]]
compound = "CC(C)Oc1cc(OC(F)(F)F)cc(C(C)(C)c2cc(Br)cc(NC(=O)c3cc4cc(NS(C)(=O)=O)ccc4s3)c2)c1"
value_observed = "0.049 µM"

[[record]]
compound = "CS(=O)(=O)Nc1ccc2sc(C(=O)Nc3cc(Cl)cc(Oc4ccc(F)cc4F)c3)cc2c1"
value_observed = "0.24 µM"

[[record]]
compound = "CC(C)Oc1cc(CN2CCN(C(=O)N(C)C)CC2)cc(C(C)(C)c2cc(Cl)cc(NC(=O)c3cc4cc(NS(C)(=O)=O)ccc4s3)c2)c1"
value_observed = "0.7 µM"

[[record]]
compound = "CS(=O)(=O)Nc1ccc2cc(C(=O)Nc3cc(-c4cccc(O)n4)cc(-c4ccc(F)cc4F)c3)[nH]c2c1"
value_observed = "> 10 µM"

[[record]]
compound = "CNC(=O)c1cc(NC(=O)c2cc3ccc(NS(C)(=O)=O)cc3[nH]2)cc(-c2ccc(F)cc2F)c1"
value_observed = "> 10 µM"

[[record]]
compound = "CS(=O)(=O)Nc1ccc2cc(C(=O)Nc3cccc(-c4cc(C(N)=O)ccc4Cl)c3)[nH]c2c1"
value_observed = "> 10 µM"

[[record]]
compound = "CS(=O)(=O)Nc1ccc2cc(C(=O)Nc3cc(F)cc(-c4ccc(F)cc4F)c3)[nH]c2c1"
value_observed = "1.3 µM"

[[record]]
compound = "COc1ccc(-c2cccc(NC(=O)c3cc4ccc(NS(C)(=O)=O)cc4n3C(=O)OC(C)(C)C)c2)c(F)c1"
value_observed = "> 10 µM"

[[record]]
compound = "CS(=O)(=O)Nc1ccc2cc(C(=O)Nc3cccc(C4(c5ccc(F)cc5)CC4)c3)[nH]c2c1"
value_observed = "1.3 µM"


###

- TARGET OF ASSAY: STAT3 (Homo sapiens, UniProt P40763)
- Construct: plasmid pSTAT3-TA-luc), which contains a stably operating STAT3 promoter; endogenous in cells
- Sequence (P40763 whole entry): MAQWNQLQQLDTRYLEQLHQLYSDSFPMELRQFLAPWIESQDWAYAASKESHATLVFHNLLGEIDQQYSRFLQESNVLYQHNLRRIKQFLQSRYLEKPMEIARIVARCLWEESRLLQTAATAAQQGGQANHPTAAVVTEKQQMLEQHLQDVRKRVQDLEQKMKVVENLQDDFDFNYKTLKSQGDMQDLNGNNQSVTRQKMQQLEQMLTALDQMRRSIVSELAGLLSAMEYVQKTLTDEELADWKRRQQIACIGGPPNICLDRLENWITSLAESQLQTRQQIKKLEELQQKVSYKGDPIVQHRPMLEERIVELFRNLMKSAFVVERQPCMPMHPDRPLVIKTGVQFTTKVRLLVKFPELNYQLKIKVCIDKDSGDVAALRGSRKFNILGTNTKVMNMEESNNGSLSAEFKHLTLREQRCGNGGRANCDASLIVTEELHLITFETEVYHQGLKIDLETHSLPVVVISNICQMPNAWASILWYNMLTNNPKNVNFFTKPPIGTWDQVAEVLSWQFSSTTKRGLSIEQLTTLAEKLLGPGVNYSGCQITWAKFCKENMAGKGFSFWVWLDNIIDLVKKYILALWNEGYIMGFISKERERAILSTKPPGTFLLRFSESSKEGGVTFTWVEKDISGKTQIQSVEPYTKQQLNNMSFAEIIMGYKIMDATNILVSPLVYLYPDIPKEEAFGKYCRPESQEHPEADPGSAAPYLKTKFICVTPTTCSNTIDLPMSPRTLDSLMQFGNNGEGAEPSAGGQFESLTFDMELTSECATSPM
- ASSAY NOTES: STAT3 reporter gene assay (luciferase), LNCaP stable cell line (pSTAT3-TA-luc), IL-6 stimulation
- Assay type: cell-based
Friendly reminder: IC50 below 0.04 µM is true (1), at or above is false (0).

[[record]]
compound = "CC(C)Oc1cc(OC(F)(F)F)cc(C(C)(C)c2cc(Cl)cc(NC(=O)c3cc4cc(NS(=O)(=O)CC5CCOC5)ccc4s3)c2)c1 (stereo not shown)"
class = "true (1)"

[[record]]
compound = "CS(=O)(=O)Nc1ccc2[nH]c(C(=O)Nc3cccc(-c4ccccc4C(F)(F)F)c3)cc2c1"
class = "false (0)"

[[record]]
compound = "CS(=O)(=O)Nc1ccc2sc(C(=O)Nc3cc(Cl)nc(Oc4ccc(Cl)nc4)c3)cc2c1"
class = "false (0)"

[[record]]
compound = "CS(=O)(=O)Nc1ccc2cc(C(=O)Nc3cc(-c4ccsc4)cc(-c4ccc(F)cc4F)c3)[nH]c2c1"
class = "false (0)"

[[record]]
compound = "CN(c1cc2cc(C(=O)Nc3cc(Cl)cc(C(C)(C)c4ccc(Cl)cc4)c3)sc2cc1F)S(C)(=O)=O"
class = "true (1)"

[[record]]
compound = "CN(c1ccc(Cl)cc1)c1cc(Cl)cc(NC(=O)c2cc3cc(NS(C)(=O)=O)c(Cl)cc3s2)c1"
class = "true (1)"


###

- Test system: DU-145
- ASSAY NOTES: Cell growth inhibition assay, prostate cancer cell line DU-145
- Assay type: cell-based
- ASSAY SETUP: Homo sapiens, DU-145 prostate cancer cell line
Entries annotated with measured IC50
RESULT TYPE: IC50 (µM)

[[record]]
molecule = "CC(C)Oc1cc(OC(F)(F)F)cc(C(C)(C)c2cc(Br)cc(NC(=O)c3cc4cc(NS(C)(=O)=O)ccc4s3)c2)c1 [Example 49]"
result_type = "IC50"
cmp = "="
value_observed = 0.007

[[record]]
molecule = "COc1ccc(C(C)(C)c2cc(Cl)cc(NC(=O)c3cc4cc(NS(C)(=O)=O)ccc4s3)c2)s1 [Example 177]"
result_type = "IC50"
cmp = "="
value_observed = 0.058

[[record]]
molecule = "CC(C)(c1cc(F)cc(NC(=O)c2cc3cc(NS(C)(=O)=O)ccc3s2)c1)c1cc(CN2CCOCC2)cc(OC(F)(F)C(F)F)c1 [Example 140]"
result_type = "IC50"
cmp = "="
value_observed = 0.053

[[record]]
molecule = "CC(C)(C)OC(=O)N1CCN(Cc2cccc(C(C)(C)c3cc(Br)cc(NC(=O)c4cc5ccc(NS(C)(=O)=O)cc5[nH]4)c3)c2)CC1 [Example 117]"
result_type = "IC50"
cmp = "="
value_observed = 1.2

[[record]]
molecule = "CN(c1cc2cc(C(=O)Nc3cc(Cl)cc(C(C)(C)c4ccc(Cl)cc4)c3)sc2cc1F)S(C)(=O)=O [Example 163]"
result_type = "IC50"
cmp = "="
value_observed = 0.016

[[record]]
molecule = "CS(=O)(=O)Nc1cc2sc(C(=O)Nc3cc(Cl)cc(Oc4ccc(Cl)cc4)c3)cc2cc1Cl [Example 485]"
result_type = "IC50"
cmp = "="
value_observed = 0.38

[[record]]
molecule = "CC(C)(c1cc(Cl)cc(NC(=O)c2cc3cc(NS(C)(=O)=O)ccc3s2)c1)c1cc(OCCN2CCOCC2)cc(OC(F)(F)F)c1 [Example 90]"
result_type = "IC50"
cmp = "="
value_observed = 0.048

[[record]]
molecule = "CS(=O)(=O)Nc1cc2cc(C(=O)Nc3cc(Cl)cc(Oc4ccc(OC(F)(F)F)cc4)c3)sc2cc1Cl [Example 480]"
result_type = "IC50"
cmp = "="
value_observed = 0.007

[[record]]
molecule = "CS(=O)(=O)Nc1cc2cc(C(=O)Nc3cc(Cl)cc(-c4ccc(F)cc4F)c3)sc2cc1F [Example 322]"
result_type = "IC50"
cmp = "="
value_observed = 0.011

[[record]]
molecule = "CC(C)Oc1cc(OC(F)(F)F)cc(C(C)(C)c2cc(Cl)cc(N(CCN3CCOCC3)C(=O)c3cc4cc(N(CCN5CCOCC5)S(C)(=O)=O)c(F)cc4s3)c2)c1 [Example 218]"
result_type = "IC50"
cmp = ">"
value_observed = 1.1

[[record]]
molecule = "CC(C)(c1cc(Br)cc(NC(=O)c2cc3cc(NS(C)(=O)=O)ccc3s2)c1)c1cc(OC(F)(F)F)cc(OC(F)(F)C(F)F)c1 [Example 87]"
result_type = "IC50"
cmp = "="
value_observed = 0.009

[[record]]
molecule = "Cc1csc(C(C)(C)c2cc(Cl)cc(NC(=O)c3cc4cc(NS(C)(=O)=O)c(Cl)cc4s3)c2)c1 [Example 181]"
result_type = "IC50"
cmp = "="
value_observed = 0.005

[[record]]
molecule = "CC(C)Oc1cc(OC(F)(F)F)cc(C(C)(C)c2cc(Cl)cc(NC(=O)C3=Cc4cc(NS(C)(=O)=O)ccc4S3(=O)=O)c2)c1 [Example 222]"
result_type = "IC50"
cmp = ">"
value_observed = 1.1

